Provenance of the data: patent US12012417B2

Test system: Dengue 1 virus MY97-10245
Assay: High-content imaging cell-based flavivirus immunodetection (HCl-CFI) assay, Dengue 1
Details: Dengue virus, A549, 48 h, read-out: Dengue 1 virus MY97-10245 in A549 using HCl [Inhibitor/IC50] Qualified AC50
pEC50: −log10 of the molar value.
Can you tell me pEC50 for the items I'm about to list?

These solved cases illustrate the format of a correct answer.
{"COMPOUND": "N#Cc1c(NC(=O)Cc2ccc3c(c2)CCS3(=O)=O)sc2c1CN(Cc1cccc(F)c1)CC2 [Example 33]", "pEC50": "6.00 to 7.00"}
{"COMPOUND": "COc1cc(CC(=O)Nc2sc3c(c2C#N)CN(CC2CCCCC2)C(C)(C)C3)ccc1S(N)(=O)=O [Example 82]", "pEC50": "> 7.00"}
{"COMPOUND": "COc1cc(S(N)(=O)=O)ccc1CC(=O)Nc1sc2c(c1C#N)CN(Cc1cccc(F)c1)CC2 [Example 24]", "pEC50": "6.00 to 7.00"}
{"COMPOUND": "N#Cc1c(NC(=O)Cc2ccc(S(N)(=O)=O)cc2)sc2c1CCN(CC1CCCCC1)C2 [Example 92]", "pEC50": "6.00 to 7.00"}
{"COMPOUND": "N#Cc1c(NC(=O)Cc2ccc(S(N)(=O)=O)cc2)sc2c1CCN(Cc1ccc(F)c(F)c1)C2 [Example 105]", "pEC50": "< 6.00"}

Please give pEC50 for each item listed below.
1. N#Cc1c(NC(=O)Cc2ccc(CS(N)(=O)=O)cc2)sc2c1CN(CC1CCCCC1)CC2 [Example 17]
2. CCC1Cc2sc(NC(=O)Cc3ccc(S(N)(=O)=O)cc3)c(C#N)c2CN1Cc1cccc(F)c1 (stereo not shown) [Example 87]
3. CC1(C)Cc2sc(NC(=O)Cc3ccc(S(N)(=O)=O)cc3)c(C#N)c2CN1Cc1cccc(F)c1 [Example 81]
4. Cc1cc(C)cc(CN2CCc3c(sc(NC(=O)Cc4ccc(S(N)(=O)=O)cc4)c3C#N)C2)c1 [Example 110]
5. COc1cc(S(N)(=O)=O)ccc1CC(=O)Nc1sc2c(c1C#N)CN(CC1CCCCC1)CC2 [Example 19]

Output line:
1. 6.00 to 7.00
2. 6.00 to 7.00
3. 6.00 to 7.00
4. 6.00 to 7.00
5. > 7.00

For each listed entry, give its pEC50.
1. CC1Cc2sc(NC(=O)Cc3ccc(S(C)(=O)=O)cc3)c(C#N)c2CN1Cc1cc(Cl)ccc1Cl (stereo not shown) [Example 70]
2. N#Cc1c(NC(=O)Cc2ccc(S(N)(=O)=O)cc2)sc2c1CCN(Cc1c(Cl)cccc1Cl)C2 [Example 112]
3. COc1cc(CC(=O)Nc2sc3c(c2C#N)C(C)(C)N(Cc2ccccc2)CC3)ccc1S(N)(=O)=O [Example 49]
4. N#Cc1c(NC(=O)Cc2ccc(S(N)(=O)=O)cc2)sc2c1CN(CC13CC(F)(C1)C3)CC2 [Example 1]
5. CCC1(CC)Cc2sc(NC(=O)Cc3ccc(S(N)(=O)=O)cc3)c(C#N)c2CN1CC1CC(F)(F)C1 [Example 79]
6. CN(C)S(=O)(=O)c1ccc(CC(=O)Nc2sc3c(c2C#N)CN(CC2CCCCC2)CC3)cc1 [Example 14]
7. N#Cc1c(NC(=O)Cc2ccc(S(N)(=O)=O)cc2)sc2c1CCN(Cc1cccc(F)c1)CC2 [Example 124]
8. N#Cc1c(NC(=O)Cc2ccc(S(N)(=O)=O)cc2)sc2c1CCN(Cc1cccc(F)c1F)C2 [Example 106]

Output line:
["6.00 to 7.00", "< 6.00", "< 6.00", "< 6.00", "> 7.00", "6.00 to 7.00", "6.00 to 7.00", "6.00 to 7.00"]
